VALUE_KIND: melting point

{"columns": ["MOLECULE", "OBS_VALUE"],
 "data": [
  ["CCC1c2cccn2-c2ccc(F)cc2N1C(=O)c1ccc(OC)cc1 (centres undefined)", "39 to 42 °C"],
  ["COc1ccc(Cl)c(Oc2c(NS(=O)(=O)c3ccc(C(C)C)cn3)ncnc2OCCOC(=O)Nc2ccccn2)c1", "190 to 191 °C"],
  ["NC(=S)Nc1c(Cl)cccc1Cl", "158 to 160 °C"],
  ["O=C1Nc2cnc(Nc3ccc(N4CCOCC4)cc3)nc2S/C1=C/c1ccc([N+](=O)[O-])cc1", "302 to 304 °C"],
  ["COC1=CC(=O)C2=C(C1=O)C1CCC2C1 (centres undefined)", "106 to 108 °C"],
  ["Cn1ccc2c1CCn1ccnc1C2=C1CCN(C2CCN(C(=O)c3cc(C(F)(F)F)cc(C(F)(F)F)c3)C(Cc3ccccc3)C2)CC1 (centres undefined)", "133 °C"],
  ["COc1cccc2c(Nc3cccc(Br)c3)c(C#N)cnc12", "210 to 212 °C"],
  ["CN(C)Cc1nc(C=Cc2nc3ccc(F)cc3c(=O)n2-c2ccccc2F)cs1", "163 to 165 °C"],
  ["C=CCc1c(O)ccc2c(C)c(CC(=O)OC)c(=O)oc12", "160 to 162 °C"]
]}

---

Readings of melting point for the listed compounds

{"columns": ["COMPOUND", "melting point"],
 "data": [
  ["COC(=O)CCc1ccc(-n2ccn(-c3ccc(C(=N)NC(=O)OC)cc3)c2=O)cc1", "> 260 °C"],
  ["Nc1ccc(S(=O)(=O)c2cc(Br)nc(N3CCOCC3)c2)cc1", "244 to 245 °C"],
  ["CONC(=O)Nc1ccc(-c2sc3c(c2CNC(C)c2ccccc2)c(=O)n(-c2ccc(F)cn2)c(=O)n3Cc2c(F)cccc2F)cc1 (stereo not drawn)", "128 to 130 °C"],
  ["COC1(c2cncnc2SC)c2ccccc2CC1(C)C (stereo not drawn)", "130 to 132 °C"],
  ["CN(C)c1ccc(-c2ccnc(Nc3ccc4c(c3)OCCO4)c2)cc1", "154 to 156 °C"],
  ["CCCN(CCC)Cc1cnc(-c2ncn3c2[C@@H]2CCN2C(=O)c2sccc2-3)o1", "133 to 135 °C"],
  ["C[C@@H](N(CC(=O)O)C(=O)c1ccc(OCC(F)(F)C(F)F)cc1)[C@](O)(Cn1cncn1)c1ccc(Cl)cc1Cl (relative stereo)", "192 to 193 °C"],
  ["CCNC(=O)C(=CNc1ccc(I)cc1)C(=O)c1ccccc1Cl", "160 to 162 °C"]
]}

---

Readings of melting point for the listed compounds

{"columns": ["COMPOUND", "melting point"],
 "data": [
  ["O=C(CCCOc1ccc(-c2ccc(Cl)cc2)cc1)NO", "168 to 170 °C"],
  ["COc1ccc(N2CN(CC(=O)O)C(=O)C23CCN(C(=O)OC(C)(C)C)CC3)cc1", "173 to 174 °C"],
  ["Cc1cccc(-n2nc(Sc3ccc(Cl)cc3)c(C)c(C#N)c2=O)c1", "163 to 165 °C"],
  ["CCN(C)c1nc(-c2cc(OC)cc(OC)c2)nc2sc(C#N)c(C)c12", "145 to 148 °C"],
  ["N#CCc1cc2c(cc1CC#N)OCO2", "105 to 107 °C"],
  ["Nc1nc(N)c(CCCN(C(=O)C(F)(F)F)c2ccc(C(=O)O)cc2)c(=O)[nH]1", "229 to 230 °C"],
  ["CCc1nc(NC(=O)NS(=O)(=O)c2ccccc2OC(F)F)nc(OC)n1", "114 to 116 °C"],
  ["Cc1cc(-c2nnc3c4ccccc4c(OCc4ncn(C)n4)nn23)no1", "249 to 251 °C"],
  ["CCC(C)C(C)CNc1cccc(-c2ccnc3c(C(=O)c4cccs4)cnn23)c1 (configuration not stated)", "84 to 86 °C"],
  ["Cc1ccc([N+](=O)[O-])c(C(=O)Nc2ccc(-n3nc(C(F)(F)F)cc3C(F)(F)F)cc2)c1", "188 to 189 °C"],
  ["COc1ccc(C#Cc2ccccc2)cc1", "57 to 58 °C"],
  ["O=S1(=O)N=C(O)c2ccc(-c3ccccn3)cc21", "305 to 311 °C"],
  ["O=C(O)c1ccc(C2CCNCC2)cc1", "> 270 °C"],
  ["O=[N+]([O-])C(F)(CCc1nnc(C(F)(F)C(F)(F)C(F)(F)F)o1)[N+](=O)[O-]", "21 to 22 °C"],
  ["Cc1oc2c(C(O)CN)cccc2c1C (configuration not stated)", "73 °C"],
  ["COc1cc(C(=O)OCc2ccccc2)ccc1S(=O)(=O)Cl", "72 °C"],
  ["CCCCc1cc(C)cc(=O)[nH]1", "95 °C"],
  ["O=C(O)C1(C(=O)O)CC(C2CCC2)C1", "150 to 151 °C"],
  ["O=C(O)c1cccc(Oc2cccc(C(F)(F)F)c2)n1", "47 to 49 °C"],
  ["COc1cc(COc2nn(Cc3ccccc3)cc2C(N)=O)ccc1OCc1nc(-c2ccccc2)oc1C", "164 to 165 °C"],
  ["CON(C)C(=O)c1ocnc1C", "59 to 60 °C"],
  ["COc1ccc(C(=O)CC2CCCN(C)C2)cc1 (configuration not stated)", "89 to 92 °C"]
]}

---

{"columns": ["COMPOUND", "melting point"],
 "data": [
  ["CC(C)(C)NC(=O)[C@@H]1CCCC[C@H]1C[C@@H](O)[C@H](Cc1ccccc1)NC(=O)[C@H](CC(N)=O)NC(=O)c1cc(Cl)cc(Cl)c1", "220 to 226 °C"],
  ["CC1CCc2c(N3CCN(C)CC3)c(F)cc3c(=O)c(C(=O)O)cn1c23 (stereo not given)", "262 to 263 °C"],
  ["Cc1cc(=S)c2c(O)cc(O)cc2o1", "244 to 246 °C"],
  ["CC(C)N(C(=O)c1c(Cl)cccc1[Si](C)(C)C)C(C)C", "96 to 97.5 °C"],
  ["CC(=O)Nc1cc(Br)ccc1C(=O)O", "220 °C"],
  ["Oc1ccc2nc(-n3ccnc3)nc(NCc3ccccc3)c2c1", "230 °C"],
  ["N#CCCSN1C(=O)c2ccccc2C1=O", "162 to 164 °C"],
  ["CCCCCCNC(=O)c1cnc2cccc(C)n2c1=O", "116 to 118 °C"],
  ["CSc1ncc2cc(Br)c(=O)[nH]c2n1", "266 to 270 °C"],
  ["CC(=NNc1ccc(C(F)(F)F)cc1)C(=O)NCc1ccc(Cl)nc1", "184 °C"],
  ["CS(=O)(=O)N1CCC(C(=O)Nc2ccccc2Oc2ccc(Cl)cc2Cl)CC1", "150 to 151 °C"],
  ["CC1(C)CC(N(c2nc(F)nc(N(C3CC(C)(C)N(O)C(C)(C)C3)C3CC(C)(C)N(O)C(C)(C)C3)n2)C2CC(C)(C)N(O)C(C)(C)C2)CC(C)(C)N1O", "254 to 257 °C"],
  ["CC[C@H](C)[C@H](NC(=O)Nc1ccccc1C(F)(F)F)C(=O)N[C@H](CO)Cc1c[nH]c2ccccc12", "232 to 234 °C"],
  ["O=c1ccc2c([N+](=O)[O-])cccc2n1O", "205 °C"],
  ["CCCCCc1ccc(-c2ccc(-c3ccc(CC)cc3)cc2F)s1", "44 °C"],
  ["CC(C)C1(C)NC(c2ccc(C=O)cn2)=NC1=O (stereo not given)", "106 to 108 °C"],
  ["CCCC[C@@H](NC(=O)OC(C)(C)C)C(=O)NCC(=O)OCc1ccccc1", "85 to 86 °C"],
  ["O=S(Cc1noc(Cc2ccccc2)n1)c1ccc(CCNC[C@H](O)COc2ccc(O)cc2)cc1 (stereo not given in full)", "51 to 57 °C"],
  ["CCC(=C(c1ccccc1)c1ccc(OCC(O)CO)cc1)C1CCCC1 (stereo not given)", "89 to 91 °C"],
  ["CC(C)(C)C(NC(=O)c1ccc(Cl)cc1)NC(=NC#N)Nc1cccc(C(F)(F)F)c1 (stereo not given)", "184 to 186 °C"],
  ["Cc1cc(C)cc(OCC(O)CO)c1 (stereo not given)", "47 to 49 °C"],
  ["CCOC(=O)c1ccc(-c2ccc(OCCNC3CC3)c(-c3ccc4c(c3)C(C)(C)CCC4(C)C)c2)cc1", "141 °C"],
  ["CCCC[C@H](NS(=O)(=O)c1ccc(Br)cc1)C(=S)Nc1ccc(CCC(=O)O)cc1", "174 to 176 °C"],
  ["CN(Cc1ccc(C2=NCCN2)cc1)C(=O)OCc1ccccc1", "84 °C"],
  ["CC(=O)Nc1nc(-c2cccnc2)c(-c2ccccc2)s1", "264 to 267 °C"],
  ["CCOC(=O)c1c[nH]c2cc(Cl)ncc2c1=O", "300 °C"],
  ["CC(=O)c1c(C)c(NC(=O)CC(C)(C)C)c(C)c2c1SCC2c1ccc(C(C)C)cc1 (stereo not given)", "218 to 219 °C"],
  ["CC(C)=CCc1cc(C2CCc3ccc(O)cc3O2)ccc1O (stereo not given)", "116 to 117 °C"],
  ["CNC(=O)CC1CN=C(c2cc3cc(Oc4ccc(CS(C)(=O)=O)nc4)cc(OC4CCOCC4)c3[nH]2)S1 (stereo not given)", "157 to 158 °C"],
  ["CC(C)(CCl)C(OC(=O)C(Cl)Cl)C(Oc1ccc(Cl)cc1)n1ccnc1 (stereo not given)", "108 to 110 °C"],
  ["COc1cc(C(C)C)ccc1C1(O)C(=O)c2ccc(N)c(N)c2C1=O (stereo not given)", "272 to 274 °C"],
  ["CNC(=O)OCc1c(COC(=O)NC)c2n(c1C)Cc1ccccc1C2", "174 to 176 °C"],
  ["C[C@H]1CCCC(C)(C)[C@]1(C)C(=O)c1ccc(F)cc1", "49 to 51 °C"],
  ["COc1cc2c(cc1O)CCN(Cc1cccc(OC)c1OC)C2", "101 to 102 °C"],
  ["O=C(c1ccc(F)cc1)C1CCN(CCCn2c(=O)[nH]c(=O)c3ccccc32)CC1", "193 °C"],
  ["COc1coc2ccc(OCCCCCCN3CCC(O)CC3)cc2c1=O", "124 to 125 °C"],
  ["CC(CC(=O)O)CC(=O)N(c1ccccc1)c1cc(C(C)(C)C)c(O)c(C(C)(C)C)c1 (stereo not given)", "153 to 155 °C"],
  ["CCCc1cc2cc(OCC(=O)O)c(Cl)c(Cl)c2s1", "165 to 166 °C"],
  ["Cc1cc(C2(C(F)(F)F)CC(Cl)=NO2)ccc1NC(=O)OC(C)(C)C (stereo not given)", "83 to 85 °C"],
  ["C#CC(C)(C)OC(C)Oc1ccc(NC(=O)N(C)C)cc1Cl (stereo not given)", "99 to 101 °C"]
]}
